method-notes: qHTS assay to identify small molecule inhibitors of chordoma cells - UCH-1 (AID 1259355); also: nearly all actives have a fitted effect of over 55% in size; also: potency is read from the fitted curve at half-maximal effect
particulars: UCH-1 chordoma viability, CellTiter-Glo, 48 h, combination; series mostly up to 46.1 µM
Inconclusive results are not listed. The source made the active and inactive calls. Calls follow the shape of the dose curve; as a rule, active = well fitted cell-killing curve with a large enough effect; inconclusive = small, poorly fitted or top-dose-only effect, or effect the other way; inactive = no such curve, though single readings can be large or run the other way.

>  <compound>
CCN(CC)C(=O)/C(Cl)=C(\C)OP(=O)(OC)OC

>  <Potency>
inactive

$$$$
>  <compound>
NCC(O)c1cccc(O)c1 (stereo not drawn)

>  <Potency>
inactive

$$$$
>  <compound>
CCOP(=O)(OCC)O/C(=C/Cl)c1ccc(Cl)cc1Cl

>  <Potency>
inactive

$$$$
>  <compound>
CC(=O)O[C@H]1CC[C@H]2[C@@H]3CCC4=CC(=O)CCC4=C3C=C[C@]12C

>  <Potency>
inactive

$$$$
>  <compound>
CC(C)[C@@]1(NC(=O)[C@@H]2C[C@@H]3c4cccc5[nH]cc(c45)C[C@H]3N(C)C2)O[C@@]2(O)[C@@H]3CCCN3C(=O)[C@H](Cc3ccccc3)N2C1=O

>  <Potency>
inactive

$$$$
>  <compound>
O=S(=O)(O)c1cc(O)ccc1O

>  <Potency>
inactive

$$$$
>  <compound>
O[C@H]1[C@H]2[C@H](O)CCCN2C[C@H]1O

>  <Potency>
inactive

$$$$
>  <compound>
Cc1cc(C)cc(C(=O)OC2C[C@H]3CC[C@@H](C2)N3C)c1 (stereo partly drawn)

>  <Potency>
inactive

$$$$
>  <compound>
CC(=O)O[C@H]1C[C@H](O[C@H]2[C@@H](O)C[C@H](O[C@H]3[C@@H](O)C[C@H](OC4CC[C@@]5(C)[C@H](CC[C@@H]6[C@@H]5CC[C@]5(C)[C@@H](C7=CC(=O)OC7)CC[C@]65O)C4)O[C@@H]3C)O[C@@H]2C)O[C@H](C)[C@H]1O[C@@H]1O[C@H](CO)[C@@H](O)[C@H](O)[C@H]1O (stereo partly drawn)

>  <Potency>
447 nM (active)

$$$$
>  <compound>
CC1CCC(C(C)C)C(OC(=O)c2ccccc2N)C1 (stereo not drawn)

>  <Potency>
inactive

$$$$
>  <compound>
c1csc(C2(N3CCCCC3)CCCCC2)c1

>  <Potency>
inactive

$$$$
>  <compound>
CC(=O)OC1CN2CCC1CC2 (stereo not drawn)

>  <Potency>
inactive

$$$$
>  <compound>
CN1c2ccccc2C(NCCCCCCC(=O)O)c2ccc(Cl)cc2S1(=O)=O (stereo not drawn)

>  <Potency>
inactive

$$$$
>  <compound>
ClCC1CO1 (stereo not drawn)

>  <Potency>
inactive

$$$$
>  <compound>
OC[C@@H](O)[C@H]1O[C@@H]2O[C@@H](C(Cl)(Cl)Cl)O[C@@H]2[C@H]1O

>  <Potency>
inactive

$$$$
>  <compound>
CCNCC(O)c1cccc(O)c1 (stereo not drawn)

>  <Potency>
inactive

$$$$
>  <compound>
CCCC(=O)OC(C(Cl)(Cl)Cl)P(=O)(OC)OC (stereo not drawn)

>  <Potency>
inactive

$$$$
>  <compound>
O=c1c2ccccc2[se]n1-c1ccccc1

>  <Potency>
inactive

$$$$
>  <compound>
O=c1[nH]c(=O)n(Cl)c(=O)n1Cl

>  <Potency>
inactive

$$$$
>  <compound>
O=C(CCl)c1ccc(Oc2ccc(C(=O)CCl)cc2)cc1

>  <Potency>
inactive

$$$$
>  <compound>
C[C@]12C[C@H]3S[C@H]3C[C@@H]1CC[C@@H]1[C@@H]2CC[C@]2(C)[C@@H](O)CC[C@@H]12

>  <Potency>
inactive

$$$$
>  <compound>
COC1=CC=C2[C@H]3Cc4ccc(OC)c5c4[C@@]2(CCN3C)[C@H]1O5

>  <Potency>
inactive

$$$$
>  <compound>
CN1C2CCC1CC(OC(c1ccccc1)c1ccc(Cl)cc1)C2 (stereo not drawn)

>  <Potency>
inactive

$$$$
>  <compound>
C=CCN1CC[C@]23c4c5ccc(O)c4O[C@H]2[C@@H](O)C=C[C@H]3[C@H]1C5

>  <Potency>
inactive

$$$$
>  <compound>
c1cc2c(c(NC3=NCCN3)c1)CCCC2

>  <Potency>
inactive

$$$$
>  <compound>
CC(=O)OO

>  <Potency>
inactive

$$$$
>  <compound>
[H+].[H+].[Hg+2].[O-]B([O-])[O-].[c-]1ccccc1

>  <Potency>
8910 nM (active)

$$$$
>  <compound>
CCCCCCCCCC(=O)O[C@H]1CC[C@H]2[C@@H]3CCC4=CC(=O)CC[C@]4(C)[C@H]3CC[C@]12C

>  <Potency>
inactive

$$$$
>  <compound>
ClC1C(Cl)C(Cl)C(Cl)C(Cl)C1Cl (stereo not drawn)

>  <Potency>
inactive

$$$$
>  <compound>
Cc1cccc(C(C)c2cnc[nH]2)c1C (stereo not drawn)

>  <Potency>
inactive

$$$$
>  <compound>
CN1[C@@H]2CC[C@H]1CC(OC1c3ccccc3CCc3ccccc31)C2 (stereo partly drawn)

>  <Potency>
inactive

$$$$
>  <compound>
CC(C)CCC(=O)O[C@H]1CC[C@H]2[C@@H]3CCC4=CC(=O)CC[C@]4(C)[C@H]3CC[C@]12C

>  <Potency>
inactive

$$$$
>  <compound>
CN1CCCC(=C(c2cccs2)c2cccs2)C1

>  <Potency>
inactive

$$$$
>  <compound>
N#CC(C#N)=Cc1cc(O)c(O)c(O)c1

>  <Potency>
inactive

$$$$
>  <compound>
CC(=O)O[C@H]1C[C@H](O[C@H]2[C@@H](O)C[C@H](O[C@H]3[C@@H](O)C[C@H](O[C@H]4CC[C@@]5(C)[C@H](CC[C@@H]6[C@@H]5C[C@@H](O)[C@]5(C)[C@@H](C7=CC(=O)OC7)CC[C@]65O)C4)O[C@@H]3C)O[C@@H]2C)O[C@H](C)[C@H]1O[C@@H]1O[C@H](CO)[C@@H](O)[C@H](O)[C@H]1O

>  <Potency>
251 nM (active)

$$$$
>  <compound>
CC1(C)S[C@@H]2[C@H](N)C(=O)N2[C@H]1C(=O)O

>  <Potency>
inactive

$$$$
>  <compound>
F/C(COc1ccc2c(c1)[nH]c1ccccc12)=C1/CN2CCC1CC2

>  <Potency>
inactive

$$$$
>  <compound>
C[CH2][Hg][S]c1ccccc1C(=O)O

>  <Potency>
3160 nM (active)

$$$$
>  <compound>
C=C[C@H]1CN2CC[C@H]1C[C@H]2[C@H](OC(=O)OCC)c1ccnc2ccc(OC)cc12

>  <Potency>
inactive

$$$$
>  <compound>
O=C1CCCCC1CN1CCCCC1 (stereo not drawn)

>  <Potency>
inactive

$$$$
>  <compound>
CCC1(c2ccccc2)C(=O)NC(=O)N(C)C1=O (stereo not drawn)

>  <Potency>
inactive

$$$$
>  <compound>
O=c1[nH]cc(N(CCCl)CCCl)c(=O)[nH]1

>  <Potency>
inactive

$$$$
>  <compound>
Oc1cc(Cl)c(Cl)cc1Cl

>  <Potency>
inactive

$$$$
